Target: Muscarinic M2 (Homo sapiens, UniProt P08172)
Sequence (P08172 whole entry): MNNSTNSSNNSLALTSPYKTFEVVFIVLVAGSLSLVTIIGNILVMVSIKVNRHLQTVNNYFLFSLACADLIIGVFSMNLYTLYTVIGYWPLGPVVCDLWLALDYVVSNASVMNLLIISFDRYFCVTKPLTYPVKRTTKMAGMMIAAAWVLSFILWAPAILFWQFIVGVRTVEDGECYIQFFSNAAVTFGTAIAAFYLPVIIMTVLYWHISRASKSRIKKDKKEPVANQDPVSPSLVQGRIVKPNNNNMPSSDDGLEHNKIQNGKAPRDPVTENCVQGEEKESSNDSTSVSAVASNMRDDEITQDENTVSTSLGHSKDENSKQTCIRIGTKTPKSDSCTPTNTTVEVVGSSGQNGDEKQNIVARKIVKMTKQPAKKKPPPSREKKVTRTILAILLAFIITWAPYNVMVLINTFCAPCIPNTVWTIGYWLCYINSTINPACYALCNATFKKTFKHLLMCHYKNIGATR
Test: Off‐target panel: Muscarinic M2 (DRX)
Assay type: cell-based
pIC50: −log10 of the molar value.
Measurement kind: pIC50

Please provide the recorded pIC50 for CCC[C@@H](NC(=O)c1cccc2c1CC(=O)N2)[C@@H](O)c1cccc(F)c1C [GSK716] , tested on Muscarinic M2 (Homo sapiens, UniProt P08172).
< 4.30

* * *

Assay: Total and unbound drug concentrations in blood and liver of Z α1‐antitrypsin transgenic mice
Type: in vivo
Conditions: female, hemizygous Z α1-antitrypsin transgenic, mouse, liver, oral, 100 mg/kg three times a day, time 483 h; read-out: TOTAL mean concentration ± SD, Liver
Measurement kind: concentration at 483 h (µM)
Just the number please, in µM, no unit attached.

Given the compound CCC[C@@H](NC(=O)c1cccc2c1CC(=O)N2)[C@@H](O)c1cccc(F)c1C [GSK716] , what is its reported concentration at 483 h?
42.4

* * *

Molecular target: Monoamine oxidase A (Homo sapiens, UniProt P21397)
Sequence (P21397 whole entry): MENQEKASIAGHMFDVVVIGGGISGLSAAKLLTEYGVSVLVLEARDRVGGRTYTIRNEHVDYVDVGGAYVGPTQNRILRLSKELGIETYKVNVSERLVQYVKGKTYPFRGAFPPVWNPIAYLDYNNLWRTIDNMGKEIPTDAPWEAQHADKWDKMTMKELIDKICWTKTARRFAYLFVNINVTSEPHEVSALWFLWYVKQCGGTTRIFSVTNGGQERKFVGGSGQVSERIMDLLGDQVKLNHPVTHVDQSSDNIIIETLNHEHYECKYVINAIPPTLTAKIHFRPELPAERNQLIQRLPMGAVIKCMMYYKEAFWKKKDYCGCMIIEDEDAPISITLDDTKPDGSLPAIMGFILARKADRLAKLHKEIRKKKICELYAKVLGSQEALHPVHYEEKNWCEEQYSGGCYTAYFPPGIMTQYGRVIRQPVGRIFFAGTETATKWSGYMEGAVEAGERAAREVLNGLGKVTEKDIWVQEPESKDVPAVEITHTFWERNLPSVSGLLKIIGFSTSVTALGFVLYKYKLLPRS
Test: Off‐target panel: Monoamine oxidase A
Assay type: biochemical
Conditions: Inhibition, read-out: Mean (PXC50)
pIC50: −log10 of the molar value.
Measurement kind: pIC50

Given the molecule CCC[C@@H](NC(=O)c1cccc2c1CC(=O)N2)[C@@H](O)c1cccc(F)c1C , what is its reported pIC50?
< 4.00

* * *

Test: Total and unbound drug concentrations in blood and liver of Z α1‐antitrypsin transgenic mice
Format: in vivo
Conditions: female, Z α1-antitrypsin transgenic (hemizygous), mouse, liver, oral, 100 mg/kg, 100 mg/kg three times a day, time 128 h; read-out: UNBOUND mean concentration ± SD, Liver
Measurement kind: concentration at 128 h (nM)
Just the number please, in nM, no unit attached.

Given the molecule CCC[C@@H](NC(=O)c1cccc2c1CC(=O)N2)[C@@H](O)c1cccc(F)c1C [GSK716] , what is its reported concentration at 128 h?
679

* * *

Target: Adrenergic α1B (Homo sapiens, UniProt P35368)
Sequence (P35368 whole entry): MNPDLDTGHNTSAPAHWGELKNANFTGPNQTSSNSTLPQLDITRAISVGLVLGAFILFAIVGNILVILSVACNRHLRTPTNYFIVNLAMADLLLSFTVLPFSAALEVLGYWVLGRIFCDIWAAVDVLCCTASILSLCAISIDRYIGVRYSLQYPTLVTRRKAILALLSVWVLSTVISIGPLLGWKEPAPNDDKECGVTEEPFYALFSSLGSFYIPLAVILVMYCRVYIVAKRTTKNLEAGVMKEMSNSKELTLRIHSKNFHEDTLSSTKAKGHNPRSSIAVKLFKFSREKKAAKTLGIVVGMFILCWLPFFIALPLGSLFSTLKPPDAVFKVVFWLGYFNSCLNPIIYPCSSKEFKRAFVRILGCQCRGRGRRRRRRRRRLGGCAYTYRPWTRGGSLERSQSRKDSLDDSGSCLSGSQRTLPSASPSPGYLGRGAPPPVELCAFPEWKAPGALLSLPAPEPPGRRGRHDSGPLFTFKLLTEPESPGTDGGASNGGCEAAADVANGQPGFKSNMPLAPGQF
Test: Off‐target panel: Adrenergic α1B (DRX)
Assay type: cell-based
Measurement kind: IC50

Given the molecule CCC[C@@H](NC(=O)c1cccc2c1CC(=O)N2)[C@@H](O)c1cccc(F)c1C , what is its reported IC50?
> 25.1 µM

* * *

Biological target: Adrenergic α2C (Homo sapiens)
Sequence (P18825 1-462): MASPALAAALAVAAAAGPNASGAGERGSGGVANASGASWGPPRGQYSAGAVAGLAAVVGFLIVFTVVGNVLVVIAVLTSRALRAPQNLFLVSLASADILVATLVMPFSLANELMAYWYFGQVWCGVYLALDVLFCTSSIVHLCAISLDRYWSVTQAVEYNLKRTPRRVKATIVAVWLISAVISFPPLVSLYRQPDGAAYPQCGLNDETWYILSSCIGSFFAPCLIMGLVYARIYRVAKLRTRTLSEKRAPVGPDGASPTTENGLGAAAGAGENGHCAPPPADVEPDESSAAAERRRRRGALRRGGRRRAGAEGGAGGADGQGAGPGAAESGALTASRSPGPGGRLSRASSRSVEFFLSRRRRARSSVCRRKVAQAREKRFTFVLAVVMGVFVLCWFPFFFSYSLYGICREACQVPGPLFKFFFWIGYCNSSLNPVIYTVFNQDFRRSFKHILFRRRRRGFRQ
Experiment: Off‐target panel: Adrenergic α2C
Type: cell-based
pEC50: −log10 of the molar value.
Measurement kind: pEC50

Given the molecule CCC[C@@H](NC(=O)c1cccc2c1CC(=O)N2)[C@@H](O)c1cccc(F)c1C , what is its reported pEC50?
< 4.00

* * *

Target: UniProt:P46098
Sequence (P46098 24-478): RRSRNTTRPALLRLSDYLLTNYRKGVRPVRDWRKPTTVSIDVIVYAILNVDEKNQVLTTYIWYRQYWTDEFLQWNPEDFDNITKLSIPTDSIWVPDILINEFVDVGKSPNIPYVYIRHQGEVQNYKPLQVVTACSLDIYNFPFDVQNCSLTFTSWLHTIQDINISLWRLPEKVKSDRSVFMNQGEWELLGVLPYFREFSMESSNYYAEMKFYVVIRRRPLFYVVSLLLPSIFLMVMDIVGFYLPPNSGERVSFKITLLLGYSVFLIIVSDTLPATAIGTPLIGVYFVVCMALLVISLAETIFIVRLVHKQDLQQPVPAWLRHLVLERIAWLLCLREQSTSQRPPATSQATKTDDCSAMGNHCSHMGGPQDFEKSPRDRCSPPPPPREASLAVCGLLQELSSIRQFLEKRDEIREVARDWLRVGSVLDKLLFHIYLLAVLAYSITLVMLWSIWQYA
Assay: Off‐target panel: Serotonin 5HT3 (DRX)
Type: cell-based
Measurement kind: IC50 (µM)
Just the number please, in µM, no unit attached.

Given the compound CCC[C@@H](NC(=O)c1cccc2c1CC(=O)N2)[C@@H](O)c1cccc(F)c1C [GSK716] , what is its reported IC50?
31.6

* * *

Target: Serotonin 5HT1B (Homo sapiens)
Sequence (P28222 whole entry): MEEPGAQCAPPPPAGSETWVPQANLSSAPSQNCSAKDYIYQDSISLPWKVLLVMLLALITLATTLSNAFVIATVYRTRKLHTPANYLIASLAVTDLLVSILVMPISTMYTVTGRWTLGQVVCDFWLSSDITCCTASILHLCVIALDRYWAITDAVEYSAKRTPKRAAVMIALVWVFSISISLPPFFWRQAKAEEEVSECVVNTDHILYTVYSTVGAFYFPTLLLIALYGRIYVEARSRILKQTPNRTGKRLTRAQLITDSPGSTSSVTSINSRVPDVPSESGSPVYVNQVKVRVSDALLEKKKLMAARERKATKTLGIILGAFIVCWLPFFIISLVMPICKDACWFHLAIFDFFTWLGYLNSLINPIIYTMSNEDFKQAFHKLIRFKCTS
Assay: Off‐target panel: Serotonin 5HT1B (DRX)
Assay type: cell-based
Method: GSK716 selectivity and PK properties were profiled in order to investigate the suitability of GSK716 for progression into in vivo studies and the potential for taking it forward as a clinical candidate for testing in humans. Since GSK716 results in loss of inhibitory activity of α1‐antitrypsin, the effect of the compound was assessed on other closely related serpins. […]
Measurement kind: EC50

Given the compound CCC[C@@H](NC(=O)c1cccc2c1CC(=O)N2)[C@@H](O)c1cccc(F)c1C , what is its reported EC50?
> 100 µM

* * *

Tested on: P-gp (MDR1)
Experiment: Permeability in MDR1‐MDCK cells with pgp inhibitor
Type: in vitro ADME
Settings: dog, with pgp inhibitor GF120918, read-out: permeability, apical to basal
Measurement kind: Papp at 60 min (×10⁻⁶ cm/s)
Just the number please, in ×10⁻⁶ cm/s, no unit attached.

Given the molecule CCC[C@@H](NC(=O)c1cccc2c1CC(=O)N2)[C@@H](O)c1cccc(F)c1C , what is its reported Papp at 60 min?
24.8

* * *

Experiment: Total and unbound drug concentrations in blood and liver of Z α1‐antitrypsin transgenic mice
Type: in vivo
Conditions: female, Z α1-antitrypsin transgenic (hemizygous), mouse, whole blood, oral, 30 mg/kg, 30 mg/kg three times a day, time 123 h; read-out: UNBOUND mean concentration ± SD, Blood
Measurement kind: concentration at 123 h (nM)
Just the number please, in nM, no unit attached.

Given the compound CCC[C@@H](NC(=O)c1cccc2c1CC(=O)N2)[C@@H](O)c1cccc(F)c1C , what is its reported concentration at 123 h?
61

* * *

Assay: Total and unbound drug concentrations in blood and liver of Z α1‐antitrypsin transgenic mice
Format: in vivo
Conditions: female, Z α1-antitrypsin transgenic (hemizygous), mouse, liver, oral, 30 mg/kg, 30 mg/kg three times a day, time 123 h; read-out: TOTAL mean concentration ± SD, Liver
Measurement kind: concentration at 123 h (µM)
Just the number please, in µM, no unit attached.

Given the molecule CCC[C@@H](NC(=O)c1cccc2c1CC(=O)N2)[C@@H](O)c1cccc(F)c1C , what is its reported concentration at 123 h?
6.7

* * *

Experiment: Total and unbound drug concentrations in blood and liver of Z α1‐antitrypsin transgenic mice
Assay type: in vivo
Details: female, Z α1-antitrypsin transgenic (hemizygous), mouse, whole blood, oral, 100 mg/kg, 100 mg/kg three times a day, time 123 h; read-out: TOTAL mean concentration ± SD, Blood
Measurement kind: concentration at 123 h

Given the compound CCC[C@@H](NC(=O)c1cccc2c1CC(=O)N2)[C@@H](O)c1cccc(F)c1C , what is its reported concentration at 123 h?
33 µM

* * *

Target: OATP1B1 (Homo sapiens, UniProt Q9Y6L6)
Sequence (Q9Y6L6 1-691): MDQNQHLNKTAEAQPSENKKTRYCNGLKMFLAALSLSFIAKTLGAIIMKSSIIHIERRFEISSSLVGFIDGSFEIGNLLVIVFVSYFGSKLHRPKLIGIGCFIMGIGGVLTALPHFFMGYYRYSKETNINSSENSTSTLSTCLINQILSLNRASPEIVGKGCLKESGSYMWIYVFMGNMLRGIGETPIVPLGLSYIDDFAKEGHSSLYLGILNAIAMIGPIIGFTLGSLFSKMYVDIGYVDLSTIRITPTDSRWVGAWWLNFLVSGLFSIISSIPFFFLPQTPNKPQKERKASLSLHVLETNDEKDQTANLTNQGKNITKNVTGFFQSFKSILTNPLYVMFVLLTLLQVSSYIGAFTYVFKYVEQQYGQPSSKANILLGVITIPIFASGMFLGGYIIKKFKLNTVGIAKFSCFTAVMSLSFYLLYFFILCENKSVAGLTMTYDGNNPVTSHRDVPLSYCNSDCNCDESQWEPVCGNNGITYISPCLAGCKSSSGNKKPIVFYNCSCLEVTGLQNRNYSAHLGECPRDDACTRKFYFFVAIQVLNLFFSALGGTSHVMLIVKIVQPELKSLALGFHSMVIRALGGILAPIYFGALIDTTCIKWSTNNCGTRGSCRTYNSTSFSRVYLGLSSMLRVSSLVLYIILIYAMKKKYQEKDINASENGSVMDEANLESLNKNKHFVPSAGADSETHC
Measurement kind: IC50

Given the compound CCC[C@@H](NC(=O)c1cccc2c1CC(=O)N2)[C@@H](O)c1cccc(F)c1C , what is its reported IC50?
> 50.1 µM

* * *

Target: α1 nicotinic AChR (Homo sapiens)
Sequence (P02708 21-457): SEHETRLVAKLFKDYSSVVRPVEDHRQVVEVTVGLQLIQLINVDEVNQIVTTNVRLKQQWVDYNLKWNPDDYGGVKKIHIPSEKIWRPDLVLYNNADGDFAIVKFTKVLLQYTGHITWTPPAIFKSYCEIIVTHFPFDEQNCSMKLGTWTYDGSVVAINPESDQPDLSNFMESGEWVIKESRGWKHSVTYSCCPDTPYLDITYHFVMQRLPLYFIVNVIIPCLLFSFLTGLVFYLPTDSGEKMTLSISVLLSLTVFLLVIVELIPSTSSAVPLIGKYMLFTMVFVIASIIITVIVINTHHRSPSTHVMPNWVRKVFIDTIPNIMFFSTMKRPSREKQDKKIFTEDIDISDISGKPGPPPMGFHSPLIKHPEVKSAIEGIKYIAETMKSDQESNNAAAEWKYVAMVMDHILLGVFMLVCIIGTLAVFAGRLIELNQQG
Sequence (P11230 24-501 partner): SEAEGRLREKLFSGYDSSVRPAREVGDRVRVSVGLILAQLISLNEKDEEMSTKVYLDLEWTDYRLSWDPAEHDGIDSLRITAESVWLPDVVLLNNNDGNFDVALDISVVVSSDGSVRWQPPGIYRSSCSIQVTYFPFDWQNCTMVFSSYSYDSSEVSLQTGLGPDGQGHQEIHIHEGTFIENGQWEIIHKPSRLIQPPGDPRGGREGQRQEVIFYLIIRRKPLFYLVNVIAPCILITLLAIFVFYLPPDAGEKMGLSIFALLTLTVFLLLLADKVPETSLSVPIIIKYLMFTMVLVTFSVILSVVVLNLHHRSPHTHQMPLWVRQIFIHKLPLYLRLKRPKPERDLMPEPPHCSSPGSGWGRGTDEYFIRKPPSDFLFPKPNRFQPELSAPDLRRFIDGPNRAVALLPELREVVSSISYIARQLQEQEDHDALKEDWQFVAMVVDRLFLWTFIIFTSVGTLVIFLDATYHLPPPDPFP
Sequence (Q07001 22-517 partner): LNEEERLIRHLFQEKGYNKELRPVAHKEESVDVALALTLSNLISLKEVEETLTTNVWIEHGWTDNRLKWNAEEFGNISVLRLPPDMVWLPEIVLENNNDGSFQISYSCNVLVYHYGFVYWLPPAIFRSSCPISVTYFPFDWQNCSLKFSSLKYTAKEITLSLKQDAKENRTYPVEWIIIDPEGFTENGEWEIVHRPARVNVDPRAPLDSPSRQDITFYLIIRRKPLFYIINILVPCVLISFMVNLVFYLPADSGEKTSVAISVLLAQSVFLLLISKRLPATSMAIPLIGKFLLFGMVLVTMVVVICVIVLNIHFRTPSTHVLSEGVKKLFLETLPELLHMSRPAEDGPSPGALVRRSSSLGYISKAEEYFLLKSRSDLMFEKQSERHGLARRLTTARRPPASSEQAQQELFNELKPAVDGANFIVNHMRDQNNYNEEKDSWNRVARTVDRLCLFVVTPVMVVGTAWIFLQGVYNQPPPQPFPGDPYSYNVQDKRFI
Test: Off‐target panel: α1 nicotinic AChR
Measurement kind: IC50

Given the compound CCC[C@@H](NC(=O)c1cccc2c1CC(=O)N2)[C@@H](O)c1cccc(F)c1C , what is its reported IC50?
31.6 µM

* * *

Experiment: Total and unbound drug concentrations in blood and liver of Z α1‐antitrypsin transgenic mice
Format: in vivo
Conditions: female, Z α1-antitrypsin transgenic (hemizygous), mouse, whole blood, oral, 10 mg/kg, 10 mg/kg three times a day, time 128 h; read-out: TOTAL mean concentration ± SD, Blood
Measurement kind: concentration at 128 h (µM)
Just the number please, in µM, no unit attached.

Given the molecule CCC[C@@H](NC(=O)c1cccc2c1CC(=O)N2)[C@@H](O)c1cccc(F)c1C , what is its reported concentration at 128 h?
7.7
